Tested on: MDA-MB-231 breast
Assay: NCI tumour cell line growth inhibition, 48 h
readout: TGI (µM)
Dear colleague, please return just the value in µM, with no unit written.

Query :: Tell me measured TGI for O=C(/C=C1\C[C@H]2C=Nc3ccccc3C(=O)N2C1)NCCCCCNC(=O)/C=C1\C[C@H]2C=Nc3ccccc3C(=O)N2C1 please.
Result :: 30.4

Continuing:
Query :: Tell me measured TGI for COc1ccc(-c2cc(-c3cc(Cl)ccc3Cl)nc3nc(=S)[nH]c(N)c23)cc1 please.
Result :: 19.8

---

Test system: MDA-MB-231 breast
Test: NCI tumour cell line growth inhibition, 48 h
readout: TGI

Known TGI results, listed for orientation:
Query :: Tell me measured TGI for CCCCCC(=O)Oc1ccc(/C(=C(\C)c2ccc(OC)cc2)c2ccc(OCCN3CCCCC3)cc2)cc1 please.
Result :: 21.9 µM

Query :: Tell me measured TGI for CC(C)(C)c1nc2c(o1)C(=Nc1ccc(F)cc1)c1ccccc1C2=O please.
Result :: > 100 µM

Query :: Tell me measured TGI for CCn1c(-c2nonc2N)nc2ccc(F)cc21 please.
Result :: > 25 µM

Continuing:
Query :: Tell me measured TGI for CC1(C)OC(CCO)CN1C(=O)OCc1ccccc1 (stereo not given) please.
Result :: > 100 µM

Query :: Tell me measured TGI for CCN(Cc1c(F)cccc1F)c1ccc(CO)c(Cl)c1 please.
Result :: 38.3 µM

Query :: Tell me measured TGI for COC(=O)/C=C\S/C(=C(/c1ccccc1)n1ccc(C(=O)OC)n1)c1ccccc1 please.
Result :: 70.9 µM

Query :: Tell me measured TGI for O=P(O)(O)C(O)(Cn1ccnc1)P(=O)(O)O please.
Result :: > 57 µM

---

System: A549 NSCLC
Assay: NCI tumour cell line growth inhibition, 48 h
# maps each entry to its TGI

Known TGI results, listed for orientation:
Query :: Tell me measured TGI for C[C@@H]1C(=O)CC2(O)[C@@]13C[C@@H](OC(=O)[C@@H]3O)[C@@H](C)[C@@]21COC1=O (some centres not stated) please.
Result :: > 100 µM

Query :: Tell me measured TGI for Cc1ccc(C(=O)c2[nH]c(Nc3cc(C)ccn3)c(C(=S)Nc3ccccc3)c2N)cc1 please.
Result :: > 100 µM

Query :: Tell me measured TGI for CN(C)c1nc(=NCc2ccccn2)ss1 please.
Result :: > 10 µM

Query :: Tell me measured TGI for Cc1ccc(C(=O)CC(Sc2cccc(Cl)c2Cl)c2ccc(Cl)cc2)cc1C (configuration not stated) please.
Result :: 52.6 µM

Query :: Tell me measured TGI for CCOC1NC(=O)c2ccccc21 (configuration not stated) please.
Result :: > 100 µM

Query :: Tell me measured TGI for CCOC(=O)Cc1nn2c(=O)cc(C)nc2s1 please.
Result :: > 100 µM

Continuing:
Query :: Tell me measured TGI for N#CC(C#N)=Cc1cccc(Oc2ccccc2)c1 please.
Result :: > 100 µM

---

Test system: SW-620 colon
Assay: NCI tumour cell line growth inhibition, 48 h
# maps each entry to its TGI

Known TGI results, listed for orientation:
Query :: Tell me measured TGI for C/C(=N\Nc1nc2ccccc2s1)c1cccnn1 please.
Result :: > 100 µM

Query :: Tell me measured TGI for CCCCCC(=O)Oc1ccc(/C(=C(\C)c2ccc(OC)cc2)c2ccc(OCCN3CCCCC3)cc2)cc1 please.
Result :: 14 µM

Query :: Tell me measured TGI for CC(O)(C(=O)N(O)c1ccc(Cl)cc1)c1ccc(Cl)cc1 (stereo unspecified) please.
Result :: > 100 µM

Query :: Tell me measured TGI for c1ccc(-c2ccc(N=NN3CCCC3)cc2)cc1 please.
Result :: > 100 µM

Query :: Tell me measured TGI for Nc1ccc(SC23CC4CC(CC(C4)C2)C3)cc1 please.
Result :: > 100 µM

The record that follows has no TGI shown yet.
Query :: Tell me measured TGI for CC1OC(n2cc(F)c(=O)[nH]c2=O)C(O[Si](C)(C)C(C)(C)C)C1O[Si](C)(C)C(C)(C)C (stereo unspecified) please.
Result :: 28.6 µM

---

Tested on: HCC-2998 colon
Experiment: NCI tumour cell line growth inhibition, 48 h; in the data active means GI50 below about 0.43 µM; inactive means the rest
Valid outcomes are listed here; reply with one: active, inactive

Past entries and their recorded results:
Query :: Could you kindly confirm the outcome this assay logged for CN(C)CCNC(=O)Nc1c(C#N)[n+]([O-])c2cc(Cl)c(Cl)cc2[n+]1[O-] ?
Result :: inactive

Query :: Could you kindly confirm the outcome this assay logged for C=CC(=O)N1CCN(c2ncnc3c(F)c(-c4c(O)cccc4F)c(Cl)cc23)CC1 ?
Result :: inactive

Query :: Could you kindly confirm the outcome this assay logged for CC(=O)O[C@H]1C(=O)[C@@]2(C)[C@H]([C@H](OC(=O)c3ccccc3)[C@]3([O-])C[C@H](OC(=O)[C@H]([O-])[C@@H](NC(=O)c4ccccc4)c4ccccc4)C(C)=C1C3(C)C)[C@]1(OC(C)=O)CO[C@@H]1C[C@@H]2[O-].[Fe+3] ?
Result :: active

Query :: Could you kindly confirm the outcome this assay logged for CC(=O)n1c(-c2ccc(Cl)cc2)nc2c(c1=O)C(c1ccc(Cl)cc1)c1sc3c(Cl)cccc3c1O2 (stereo not given) ?
Result :: inactive

Query :: Could you kindly confirm the outcome this assay logged for CCCCCC(=O)Oc1ccc(/C(=C(\C)c2ccc(OC)cc2)c2ccc(OCCN3CCCCC3)cc2)cc1 ?
Result :: inactive

Query :: Could you kindly confirm the outcome this assay logged for COC(=O)c1c(O)ccc2[nH]c(C)c(C#N)c12 ?
Result :: inactive

Query :: Could you kindly confirm the outcome this assay logged for C=CCOc1c(Br)cc(Br)cc1Br ?
Result :: inactive

Query :: Could you kindly confirm the outcome this assay logged for CC(=O)[CH-]C(C)=O.CC(=O)[CH-]C(C)=O.N=CC=N.[Sn+2] ?
Result :: inactive

Continuing:
Query :: Could you kindly confirm the outcome this assay logged for c1cc[c]([Sn]([S]c2cccc3cccnc23)([c]2ccccc2)[c]2ccccc2)cc1 ?
Result :: active

Query :: Could you kindly confirm the outcome this assay logged for Nc1nc(Nc2ccc(OCc3cccc(F)c3)cc2)c2c(n1)[nH]c1ccc(O)cc12 ?
Result :: inactive

---

Tested on: 786-0 renal
Assay: NCI tumour cell line growth inhibition, 48 h
readout: TGI

Known TGI results, listed for orientation:
Query :: Tell me measured TGI for COc1cc(/C=C/C(=O)O)ccc1OS(=O)(=O)O please.
Result :: > 100 µM

Query :: Tell me measured TGI for C=C(C)[C@@H]1CC[C@@]2(C(=O)O)CC[C@]3(C)C(CCC4[C@@]5(C)CCC(OS(=O)(=O)c6ccccc6)C(C)(C)C5CC[C@]43C)C12 (stereo partly drawn) please.
Result :: 19 µM

Query :: Tell me measured TGI for CN(C)c1nc(=NCc2ccccn2)ss1 please.
Result :: > 5.57 µM

Query :: Tell me measured TGI for NC(=S)N=Nc1c(O)cc(Nc2ccc(Cl)cc2Cl)c2ccccc12 please.
Result :: 26.3 µM

Query :: Tell me measured TGI for Cc1sc(C)c(-c2ccc(CO)o2)c1-c1ccc(CO)o1 please.
Result :: > 100 µM

Query :: Tell me measured TGI for Clc1ccc(OCc2nnc3n2N=C(c2ccc(Cl)cc2Cl)CS3)c(Cl)c1 please.
Result :: 98.8 µM

Query :: Tell me measured TGI for NCCN1CCN(c2nccc(-c3ccc4ccccc4c3)n2)CC1 please.
Result :: 3.17 µM

Query :: Tell me measured TGI for N/C(CSCCSC/C(N)=N/O)=N\O please.
Result :: > 100 µM

Continuing:
Query :: Tell me measured TGI for CC1CCCC(C(=O)/C(=C/c2cccc(Cl)c2)C(=O)C(=O)O)C1 (stereo not drawn) please.
Result :: 33 µM

Query :: Tell me measured TGI for C=CC(=O)Nc1cccc(Nc2nc(Nc3ccc(OCCOC)cc3)ncc2F)c1 please.
Result :: 13.1 µM

---

# maps each entry to its TGI
Test system: U251 CNS
Experiment: NCI tumour cell line growth inhibition, 48 h

Known TGI results, listed for orientation:
Query :: Please indicate recorded TGI of CC(C)(C)OC(=O)c1ccc(NCc2cc(O)ccc2O)cc1 measured with U251 CNS.
Result :: 9.32 µM

Query :: Please indicate recorded TGI of CCn1c(-c2nonc2N)nc2ccc(F)cc21 measured with U251 CNS.
Result :: > 25 µM

Query :: Please indicate recorded TGI of CC1=CCC[C@H]2[C@](C)(CC3=CC(=O)C4SCCSC4C3=O)[C@@H](C)CC[C@]12C (some centres undefined) measured with U251 CNS.
Result :: 34.5 µM

Query :: Please indicate recorded TGI of CN(C)c1nc(=NCc2ccccn2)ss1 measured with U251 CNS.
Result :: > 10 µM

Query :: Please indicate recorded TGI of CCOC(=O)/C(=C/c1ccco1)P(=O)(OCC)OCC measured with U251 CNS.
Result :: > 100 µM

The record that follows has no TGI shown yet.
Query :: Please indicate recorded TGI of CC(C)(C)C1(O)Cc2ccccc2C(=O)O1 (centres undefined) measured with U251 CNS.
Result :: > 100 µM
